Can you tell me self-cleavage for the items I'm about to list?
B1: LINE1-mini (parent)
chain: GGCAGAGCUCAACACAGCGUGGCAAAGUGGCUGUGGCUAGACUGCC

# Variants of: B1
# test description: self-cleavage, relative activity (ratio to wild type); higher = more cleavage; in vitro, sequencing; the parent is a self-cleaving ribozyme
One number for each entry.

State the recorded self-cleavage for every item in the following list.
1. G7C G36C
2. C8U U20C

1. 0.1
2. 0.09

State the recorded self-cleavage for every item in the following list.
1. C23U A41G
2. A11G C31U
3. C18A C42G
4. G21C G33C
5. C8U C45G
6. C18U G33A
7. U9C C15U
8. G7A G22C

1: 0.51; 2: 0.02; 3: 0.04; 4: 0.05; 5: 0.46; 6: 0.09; 7: 0.04; 8: 0.13

State the recorded self-cleavage for every item in the following list.
1. G30A G35U
2. C3U A14C
3. G2U C3U
4. G2C U28C
5. C10G G17C
6. C13A G29C
7. C3A G27U
8. G19A U38A

0.09
0.08
0.37
0.09
0.23
0.06
0.62
0.82

// data source = the RNAGym collection of RNA variant scans (doi:10.7554/elife.90254)
